test method notes: SK-BR-3 proliferation inhibitors, primary screen, cell-based, human, 24 h (AID 847);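 further: 100% = median untreated cell wells and 0% = median positive control drug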
cond: SK-BR-3 viability, CellTiter-Glo ATP luminescence, at 10 µM, stronger effect = lower value
Out of some 41,000 compounds screened, about 190 (0.46%) were called active. Only a selection was taken, and actives are over-represented in it overall.
test readout: viability (%)
// note: answer is a bare numeric in %

Example entries begin here.
- compound: "CCc1ccccc1NC(=O)CSc1nnc([C@@H](NC(=O)OC(C)(C)C)C(C)CC)o1 (stereo partly drawn)"
  units text: "%"
  measured: 89.6
- compound: "Cn1c(SCC(=O)Nc2cccc(NC(=O)c3cccs3)c2)nnc1-c1ccncc1"
  units text: "%"
  measured: 91.4

Turning now to a further record.
*Q* Consider the compound CC(C(=O)O)N1C(=O)c2cccc3cccc1c23 (stereo not drawn) and give its measured viability.
*A* 91.2
